Molecular target: HIV-1 Env of isolate 92WR026 (HIV-1)
Experiment: cell-based or functional assay
PROPERTY NAME: IC50 (µg/mL), pseudovirus neutralization

>  <BINDER>
PGT-126 (antibody, V domains shown) VH: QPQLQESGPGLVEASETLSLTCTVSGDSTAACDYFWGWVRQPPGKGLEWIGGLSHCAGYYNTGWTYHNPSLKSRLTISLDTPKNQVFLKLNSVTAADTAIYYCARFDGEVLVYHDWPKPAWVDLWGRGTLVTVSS VL: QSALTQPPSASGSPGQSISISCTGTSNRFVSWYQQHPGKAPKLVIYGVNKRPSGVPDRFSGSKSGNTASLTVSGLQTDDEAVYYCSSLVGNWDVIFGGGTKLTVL

>  <MEASURED>
0.008

$$$$
>  <BINDER>
PGT-125 (antibody, V domains shown) VH: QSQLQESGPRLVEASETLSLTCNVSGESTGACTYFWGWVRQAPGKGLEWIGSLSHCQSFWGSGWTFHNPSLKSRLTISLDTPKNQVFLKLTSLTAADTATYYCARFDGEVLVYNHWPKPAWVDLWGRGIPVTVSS VL: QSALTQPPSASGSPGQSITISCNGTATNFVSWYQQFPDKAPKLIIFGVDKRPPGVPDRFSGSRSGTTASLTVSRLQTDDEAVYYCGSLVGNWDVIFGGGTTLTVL

>  <MEASURED>
0.007

$$$$
>  <BINDER>
PGT-127 (antibody, V domains shown) VH: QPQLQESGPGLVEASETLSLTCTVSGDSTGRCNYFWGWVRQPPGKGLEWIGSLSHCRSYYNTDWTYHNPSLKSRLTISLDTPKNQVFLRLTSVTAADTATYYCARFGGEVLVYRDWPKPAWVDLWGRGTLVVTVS VL: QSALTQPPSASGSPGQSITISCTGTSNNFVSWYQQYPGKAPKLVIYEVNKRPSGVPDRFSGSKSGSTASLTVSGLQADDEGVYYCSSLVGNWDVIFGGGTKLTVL

>  <MEASURED>
0.024

$$$$
>  <BINDER>
PGT-123 (antibody, V domains shown) VH: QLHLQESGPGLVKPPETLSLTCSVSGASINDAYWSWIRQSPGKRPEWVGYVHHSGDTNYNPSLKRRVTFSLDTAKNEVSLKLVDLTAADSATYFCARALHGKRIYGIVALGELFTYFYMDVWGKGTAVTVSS VL: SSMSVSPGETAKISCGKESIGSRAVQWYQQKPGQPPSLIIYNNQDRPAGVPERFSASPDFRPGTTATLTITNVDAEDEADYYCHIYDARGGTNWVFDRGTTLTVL

>  <MEASURED>
0.012

$$$$

Attribution: patent US20200024330A1
